Entry source: ChEMBL document CHEMBL1159049

bioavailability values for the compounds below.
# measurement_notes: Oral bioavailability in Wistar rat at 1 mg/kg
# Type: ADME, organism-based
# protocol_conditions: in vivo
Output spec: scalar in %, unitless text.

Use these answered entries as a reference point.
Which bioavailability is reported for this compound? Cc1nc(-c2c(F)cc(Cl)cc2-c2cnc([C@@H](C)NC(=O)N(C)O)c(F)c2)no1 8

Which bioavailability is reported for this compound? Cn1nnc(-c2c(F)cc(Cl)cc2-c2cnc(CNC(=O)N(O)C3CCC(F)(F)CC3)c(F)c2)n1 78

We now examine a further compound.
Which bioavailability is reported for this compound? Cn1nnc(-c2c(F)cc(Cl)cc2-c2cnc(CNC(=O)N(O)C(CF)CF)c(F)c2)n1 86

====

# measurement_notes: Metabolic stability in human liver microsomes after 1 hr
# Type: ADME, Microsome
# protocol_conditions: read-out: Stability
readout_name: remaining at 1 h (%)
Output spec: scalar in %, unitless text.

Which remaining at 1 h is reported for this compound? Cn1nnc(-c2c(F)cc(Cl)cc2-c2cnc(CNC(=O)N(O)C3CCC(F)(F)CC3)c(F)c2)n1 61
